FYI, the data here is from the RNAGym collection of RNA variant scans (doi:10.1101/gad.245936.114).

B1: tRNA (parent)
chain: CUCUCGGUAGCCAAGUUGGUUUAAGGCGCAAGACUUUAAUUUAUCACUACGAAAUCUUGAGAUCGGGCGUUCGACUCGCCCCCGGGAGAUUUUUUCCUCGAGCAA

Variants of: B1
assay_summary: nonsense suppression (GFP-seq) (ratio to wild type); higher = more function; SUP4oc tRNA, yeast GFP reporter sort-seq
Fewer inactive variants are shown than the library holds.

[
  {
    "variant_notation": "U57C C79U",
    "nonsense suppression": "≤ 0.026"
  },
  {
    "variant_notation": "A54U C81A",
    "nonsense suppression": "≤ 0.026"
  },
  {
    "variant_notation": "C3A C72A",
    "nonsense suppression": "≤ 0.026"
  },
  {
    "variant_notation": "G88U A89G",
    "nonsense suppression": "≤ 0.026"
  },
  {
    "variant_notation": "C3U G10C U17G U22A G25C",
    "nonsense suppression": "≤ 0.026"
  },
  {
    "variant_notation": "U58G C77U",
    "nonsense suppression": "≤ 0.026"
  },
  {
    "variant_notation": "U20G C79G A87G",
    "nonsense suppression": "≤ 0.026"
  },
  {
    "variant_notation": "G7U A13G U17A",
    "nonsense suppression": "≤ 0.026"
  },
  {
    "variant_notation": "C5G C12A G59U",
    "nonsense suppression": "≤ 0.026"
  },
  {
    "variant_notation": "A33C U55C C56U G66U C79G",
    "nonsense suppression": "≤ 0.026"
  },
  {
    "variant_notation": "U4C G59A",
    "nonsense suppression": "≤ 0.026"
  },
  {
    "variant_notation": "G26C U57A A89C",
    "nonsense suppression": "≤ 0.026"
  },
  {
    "variant_notation": "G32C U63C",
    "nonsense suppression": "≤ 0.026"
  },
  {
    "variant_notation": "A33U G69C G73A",
    "nonsense suppression": "≤ 0.026"
  },
  {
    "variant_notation": "G7U C79A G85U G86U G88U",
    "nonsense suppression": "≤ 0.026"
  },
  {
    "variant_notation": "G10A G32C",
    "nonsense suppression": "≤ 0.026"
  },
  {
    "variant_notation": "C1U G26A",
    "nonsense suppression": "≤ 0.026"
  },
  {
    "variant_notation": "A74G G78U",
    "nonsense suppression": 0.0279
  },
  {
    "variant_notation": "U2C U4C",
    "nonsense suppression": 1.01
  },
  {
    "variant_notation": "G18U G25A G78U",
    "nonsense suppression": "≤ 0.026"
  },
  {
    "variant_notation": "C3U A13C",
    "nonsense suppression": 0.184
  },
  {
    "variant_notation": "C11U G26A U63C",
    "nonsense suppression": 0.212
  },
  {
    "variant_notation": "A30G A74U",
    "nonsense suppression": 0.028
  },
  {
    "variant_notation": "A33G G61A",
    "nonsense suppression": 0.0709
  },
  {
    "variant_notation": "U71G A89U",
    "nonsense suppression": "≤ 0.026"
  },
  {
    "variant_notation": "A31G U63C",
    "nonsense suppression": 0.333
  },
  {
    "variant_notation": "A30G A33G",
    "nonsense suppression": 0.046
  }
]
